IC50 values by entry
Biological target: vitronectin receptor αvβ3 (Homo sapiens, UniProt P05106+P06756)
Sequence (P06756 31-889 limits assumed): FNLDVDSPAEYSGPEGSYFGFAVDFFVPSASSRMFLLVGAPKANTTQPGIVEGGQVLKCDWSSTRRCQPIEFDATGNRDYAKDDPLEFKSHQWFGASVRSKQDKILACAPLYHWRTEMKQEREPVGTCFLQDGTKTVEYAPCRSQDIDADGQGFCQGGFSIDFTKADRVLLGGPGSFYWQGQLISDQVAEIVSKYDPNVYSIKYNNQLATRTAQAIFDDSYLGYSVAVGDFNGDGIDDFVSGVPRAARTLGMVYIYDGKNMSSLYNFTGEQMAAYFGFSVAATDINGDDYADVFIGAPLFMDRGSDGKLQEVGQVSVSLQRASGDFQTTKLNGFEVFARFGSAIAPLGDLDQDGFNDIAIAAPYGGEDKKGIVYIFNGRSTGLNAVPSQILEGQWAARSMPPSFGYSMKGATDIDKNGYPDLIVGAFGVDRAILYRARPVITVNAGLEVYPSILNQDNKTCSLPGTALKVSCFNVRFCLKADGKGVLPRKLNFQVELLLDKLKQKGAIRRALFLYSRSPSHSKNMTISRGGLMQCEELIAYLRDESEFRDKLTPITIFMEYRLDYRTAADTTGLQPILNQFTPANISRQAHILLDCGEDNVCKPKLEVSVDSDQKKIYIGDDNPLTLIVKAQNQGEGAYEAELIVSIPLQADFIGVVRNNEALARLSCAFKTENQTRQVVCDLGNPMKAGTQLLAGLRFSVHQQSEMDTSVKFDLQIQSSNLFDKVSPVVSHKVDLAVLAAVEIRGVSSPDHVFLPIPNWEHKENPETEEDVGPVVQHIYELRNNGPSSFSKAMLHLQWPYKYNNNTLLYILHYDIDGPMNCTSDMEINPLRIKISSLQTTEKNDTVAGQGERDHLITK
Sequence (P06756 891-1048 partner limits assumed): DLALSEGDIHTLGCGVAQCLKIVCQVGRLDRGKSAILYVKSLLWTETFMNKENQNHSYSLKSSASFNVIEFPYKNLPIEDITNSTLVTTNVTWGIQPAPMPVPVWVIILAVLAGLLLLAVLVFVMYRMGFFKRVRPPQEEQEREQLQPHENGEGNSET
Sequence (P05106 27-788): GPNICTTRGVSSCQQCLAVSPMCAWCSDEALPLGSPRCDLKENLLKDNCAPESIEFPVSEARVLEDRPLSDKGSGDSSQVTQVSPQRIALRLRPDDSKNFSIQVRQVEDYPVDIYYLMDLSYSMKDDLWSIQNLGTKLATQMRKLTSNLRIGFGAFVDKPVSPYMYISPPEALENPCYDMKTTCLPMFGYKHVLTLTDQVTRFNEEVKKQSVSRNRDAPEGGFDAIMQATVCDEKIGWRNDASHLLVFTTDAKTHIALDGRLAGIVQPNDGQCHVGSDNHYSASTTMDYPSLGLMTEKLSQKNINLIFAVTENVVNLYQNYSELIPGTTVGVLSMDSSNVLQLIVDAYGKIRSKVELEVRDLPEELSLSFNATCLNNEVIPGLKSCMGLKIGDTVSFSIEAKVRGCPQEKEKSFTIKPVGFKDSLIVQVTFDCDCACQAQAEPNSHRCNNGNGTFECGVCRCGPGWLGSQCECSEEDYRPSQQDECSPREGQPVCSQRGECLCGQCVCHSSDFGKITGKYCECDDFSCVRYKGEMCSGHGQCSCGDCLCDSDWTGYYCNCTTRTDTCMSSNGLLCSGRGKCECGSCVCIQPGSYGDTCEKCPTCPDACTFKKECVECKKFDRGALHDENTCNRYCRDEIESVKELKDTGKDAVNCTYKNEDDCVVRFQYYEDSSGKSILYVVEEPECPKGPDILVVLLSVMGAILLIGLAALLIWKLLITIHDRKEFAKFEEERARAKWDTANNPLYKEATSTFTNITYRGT
Assay: Inhibition of binding of 293 cells to human vitronectin (Vn/293 cell test)
Conditions: 293 cells cotransfected with αv and β3 subunits; plate coated with human vitronectin; 90 minutes at 37° C.
The response must be a number in nM with no trailing unit.

Known results for molecules:
N#Cc1ccccc1S(=O)(=O)N[C@@H](CNC(=O)c1ccc(CCC(=O)NC2=NCCCN2)cc1)C(=O)O [Example 11] ... 24
CC1(C)C2CCC1(CS(=O)(=O)N[C@@H](CNC(=O)c1ccc(CCC(=O)NC3=NCCCN3)cc1)C(=O)O)C(=O)C2 (stereo partly shown) [Example 12] ... 27
O=C(CCc1ccc(C(=O)NC[C@H](NS(=O)(=O)c2ccc3ccccc3c2)C(=O)O)cc1)NC1=NCCCN1 [Example 20] ... 5

Recorded IC50 of CC(C)CS(=O)(=O)N[C@@H](CNC(=O)c1ccc(CCC(=O)NC2=NCCCN2)cc1)C(=O)O [Example 9] , please. 69

====

Target: vitronectin receptor αvβ3 (Homo sapiens, UniProt P05106+P06756)
Experiment: Inhibition of binding of 293 cells to human vitronectin (Vn/293 cell test)
Conditions: 293 cells cotransfected with αv and β3 subunits; plate coated with human vitronectin; 90 minutes at 37° C.
assay.metric: IC50
Returns: string containing the numeric result and its unit.

Known results for compounds:
Cc1cc(C)c(S(=O)(=O)N[C@@H](CNC(=O)c2ccc(CCC(=O)NC3=NCCCN3)cc2)C(=O)O)c(C)c1 [Example 21] ... 21 nM
O=C(CCc1ccc(C(=O)NC[C@H](NS(=O)(=O)c2ccccc2)C(=O)O)cc1)NC1=NCCCN1 [Example 17] ... 9 nM
CCCS(=O)(=O)N[C@@H](CNC(=O)c1ccc(CCC(=O)NC2=NCCCN2)cc1)C(=O)O [Example 6] ... 32 nM
O=C(CCc1ccc(C(=O)NC[C@H](NS(=O)(=O)c2ccc(C(F)(F)F)cc2)C(=O)O)cc1)NC1=NCCCN1 [Example 22] ... 10 nM

Consider the record given below.
Recorded IC50 of O=C(CCc1ccc(C(=O)NC[C@H](NS(=O)(=O)c2cccc3ccccc23)C(=O)O)cc1)NC1=NCCCN1 [Example 1] , please. 6 nM

====

Molecular target: vitronectin receptor αvβ3 (Homo sapiens, UniProt P05106+P06756)
Test: Inhibition of binding of 293 cells to human vitronectin (Vn/293 cell test)
Details: 293 cells cotransfected with αv and β3 subunits; plate coated with human vitronectin; 90 minutes at 37° C.
assay.metric: log10(IC50) (log10 of the value in nM)
All values: base-10 log of IC50 in nM.

Known results for compounds:
CCCCOc1ccc(S(=O)(=O)N[C@@H](CNC(=O)c2ccc(CCC(=O)NC3=NCCCN3)cc2)C(=O)O)cc1 ... 1.46
O=C(CCc1ccc(C(=O)NC[C@H](NS(=O)(=O)c2cccc3cccnc23)C(=O)O)cc1)NC1=NCCCN1 ... 1.72

Consider the record given below.
Recorded log10(IC50) of O=C(CCc1ccc(C(=O)NC[C@H](NS(=O)(=O)c2cccc(Cl)c2)C(=O)O)cc1)NC1=NCCCN1 , please. 1.00

====

Biological target: vitronectin receptor αvβ3 (Homo sapiens, UniProt P05106+P06756)
Assay: Inhibition of binding of 293 cells to human vitronectin (Vn/293 cell test)
Conditions: 293 cells cotransfected with αv and β3 subunits; plate coated with human vitronectin; 90 minutes at 37° C.
Experimental: Test for the Measurement of the Inhibition of Binding of 293 Cells to Human Vitronectin (Vn/293 Cell Test) 1. Purification of Human Vitronectin […] A Linbro 96-well tissue culture plate with a flat bottom is coated overnight at 4° C. with human vitronectin (0.01 mg/ml, 0.05 ml/well) in phosphate-buffered saline solution (PBS) and then blocked with 0.5% strength BSA (bovine serum albumin). […] The data are analyzed according to standard processes.
assay.metric: log10 of IC50 (log10 of the value in nM)
All values: base-10 log of IC50 in nM.

O=C(CCc1ccc(C(=O)NC[C@H](NS(=O)(=O)c2cccc(C(F)(F)F)c2)C(=O)O)cc1)NC1=NCCCN1 [Example 15] ... 0.78
O=C(CCc1ccc(C(=O)NC[C@H](NS(=O)(=O)c2cccs2)C(=O)O)cc1)NC1=NCCCN1 [Example 18] ... 1.15

Recorded log10 of IC50 of O=C(CCc1ccc(C(=O)NC[C@H](NS(=O)(=O)/C=C/c2ccccc2)C(=O)O)cc1)NC1=NCCCN1 [Example 7] , please. 1.45

Recorded log10 of IC50 of O=C(CCc1ccc(C(=O)NC[C@H](NS(=O)(=O)c2ccc(-c3ccccc3)cc2)C(=O)O)cc1)NC1=NCCCN1 [Example 19] , please. 1.58

Recorded log10 of IC50 of CCCCS(=O)(=O)N[C@@H](CNC(=O)c1ccc(CCC(=O)NC2=NCCCN2)cc1)C(=O)O [Example 23] , please. 1.48

Reference for the values: patent US6747148B2
